test: PAMPA (parallel artificial membrane permeability assay); type: in vitro ADME; settings: PAMPA; membrane permeation rate (Pe); 50 mM MOPSO buffer pH 6.5 with 5.0% glycocholic acid, 37° C., 18 hours; read-out: iPAMPA Pe
Starred links: 1 amine or outer side, 2 acyl side, 3 side chain; linkers in the order of their positions; H or OH if unused. Positions of bridges follow the written chain, without caps; N, C: chain ends. Non-standard residues stand in square brackets, D forms with d. Residues, ends and D or L forms follow the SMILES beside them. *: point of attachment. NMeF = CN[C@@H](Cc1ccccc1)C(=O)O; NMeGABA = CN(CCCC(=O)[*:2])[*:1]; NMeβAla = CN(CCC(=O)[*:2])[*:1]; NMeL = CN[C@@H](CC(C)C)C(=O)O; NMeV = CN[C@H](C(=O)O)C(C)C; NMeA = CN[C@@H](C)C(=O)O; Piperidide = C1CCN(*)CC1; β3hA = C[C@H](N)CC(=O)O
Assign Papp at 18 hours, 50 µM to each entry below.
One number for each entry, in ×10⁻⁶ cm/s.

Answered cases to consult:
CC(C)C[C@H]1C(=O)N(C)[C@@H](Cc2ccccc2)C(=O)N[C@@H]([C@@H](C)O)C(=O)N(C)[C@@H](C)C(=O)N(C)[C@@H](Cc2ccccc2)C(=O)N(C)[C@@H](C)C(=O)N[C@H](C(=O)N2CCCCC2)CC(=O)N(C)CCC(=O)N(C)[C@@H](C(C)C)C(=O)N[C@@H](C)C(=O)N1C [DP-337] ([NMeβAla][NMeV]A[NMeL][NMeF]T[NMeA][NMeF][NMeA]D-Piperidide; lactam N-10)	17
CC[C@H](C)[C@@H]1NC(=O)[C@H](CC(C)C)N(C)C(=O)[C@H](C)NC(=O)CCCN(C)C(=O)C[C@H](C)NC(=O)[C@H]([C@@H](C)O)NC(=O)[C@H](Cc2ccccc2)NC(=O)[C@H](C(C)C)N(C)C(=O)[C@H](CC(C)C)N(C)C1=O [DP-823] (cyclo(A[NMeL]I[NMeL][NMeV]FT[β3hA][NMeGABA]))	31

input: Which Papp at 18 hours, 50 µM is reported for this compound? CC(C)C[C@H]1C(=O)N[C@H](C(=O)N(C)[C@@H](Cc2ccccc2)C(=O)N(C)[C@@H](Cc2ccccc2)C(=O)N[C@@H](C)C(=O)N2CCCCC2)CC(=O)N[C@@H](C)C(=O)N(C)[C@@H](Cc2ccccc2)C(=O)N(C)[C@@H](CC(C)C)C(=O)N[C@@H]([C@@H](C)O)C(=O)N(C)[C@@H](C)C(=O)N(C)[C@@H](CC(C)C)C(=O)N[C@@H](C(C)C)C(=O)N1C [DP-208] (A[NMeF][NMeL]T[NMeA][NMeL]V[NMeL]D[NMeF][NMeF]A-Piperidide; lactam N-9)
output: 27
